This section presents compounds with their documented activity change, negative = inhibition values.
# Target under test: Thyrotropin receptor (Homo sapiens) (UniProt P16473)
# Sequence (P16473 whole entry, looked up): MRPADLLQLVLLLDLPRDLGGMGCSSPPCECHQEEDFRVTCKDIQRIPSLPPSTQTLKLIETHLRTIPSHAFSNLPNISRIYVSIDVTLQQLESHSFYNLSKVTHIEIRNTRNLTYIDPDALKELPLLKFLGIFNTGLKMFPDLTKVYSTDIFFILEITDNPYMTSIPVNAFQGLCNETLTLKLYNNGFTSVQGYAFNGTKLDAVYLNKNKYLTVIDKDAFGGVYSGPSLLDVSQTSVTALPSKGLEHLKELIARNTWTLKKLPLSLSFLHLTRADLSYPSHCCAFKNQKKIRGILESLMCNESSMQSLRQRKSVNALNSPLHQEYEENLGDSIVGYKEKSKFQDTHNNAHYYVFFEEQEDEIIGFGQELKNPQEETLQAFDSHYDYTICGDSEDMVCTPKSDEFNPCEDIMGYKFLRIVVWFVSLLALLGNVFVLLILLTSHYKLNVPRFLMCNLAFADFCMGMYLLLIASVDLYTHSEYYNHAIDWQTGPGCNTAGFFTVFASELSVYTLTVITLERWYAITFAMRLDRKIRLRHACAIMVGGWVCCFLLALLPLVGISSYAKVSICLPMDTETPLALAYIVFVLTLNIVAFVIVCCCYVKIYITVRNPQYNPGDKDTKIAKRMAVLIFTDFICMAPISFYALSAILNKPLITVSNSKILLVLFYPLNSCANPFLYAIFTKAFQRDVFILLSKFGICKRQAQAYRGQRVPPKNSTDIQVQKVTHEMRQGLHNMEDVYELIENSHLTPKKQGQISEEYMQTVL
# Protocol: Antagonists of the Thyroid Stimulating Hormone Receptor: HTS campaign; also: % is scaled to controls: 0 for no effect and ±100 for the full control effect
# Settings: TSHR-expressing cells, TSH-stimulated cAMP HTRF, 2 h; at 11.5 µM; active compounds read low
The campaign covered roughly 330,000 compounds. About 670 (0.2%) were called active. Many of the other results were omitted from the sample, so actives are more common in it than they were.

Example entries begin here.
Compound	Target under test	Reported
COC(=O)C1=C(c2ccc(-c3ccccc3)c(F)c2)C[C@@H]2CC[C@H]1N2C(=O)NCc1ccc(F)cc1	Thyrotropin receptor (Homo sapiens) (UniProt P16473)	-85% (active)
CCOC(=O)c1ncn2c1[C@@H]1CCCN1C(=O)c1cc(OC)ccc1-2	Thyrotropin receptor (Homo sapiens) (UniProt P16473)	-12.5% (inactive)
C[C@]12CCC3C(CC[C@H]4C[C@@H](O)CC[C@]34C)C1CC[C@@H]2O (stereo not given in full)	Thyrotropin receptor (Homo sapiens) (UniProt P16473)	3.15% (inactive)
C[C@]12CCC3C(CC[C@H]4C[C@@H](O)CC[C@]34C)C1C[C@@H](O)[C@H]2O (stereo not given in full)	Thyrotropin receptor (Homo sapiens) (UniProt P16473)	2.4% (inactive)

Could you now consider this next compound?
Reported activity change, negative = inhibition for Thyrotropin receptor (Homo sapiens) (UniProt P16473), given `CC(=O)NBr` ? -6.86% (inactive)
